# test.target: T1, human TREM2 (triggering receptor expressed on myeloid cells 2) (human) (UniProt Q9NZC2)
# T1 sequence (looked up): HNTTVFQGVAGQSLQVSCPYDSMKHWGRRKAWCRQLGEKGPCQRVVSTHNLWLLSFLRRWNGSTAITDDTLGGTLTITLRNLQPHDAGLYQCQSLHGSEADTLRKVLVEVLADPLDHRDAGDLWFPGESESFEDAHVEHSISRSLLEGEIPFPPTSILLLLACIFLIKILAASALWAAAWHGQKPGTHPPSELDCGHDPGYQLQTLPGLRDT
# measurement.notes: 2nd screen, 100 nM Ab
Entries and their Binding Signal (fold over 6E7 parental antibody) values follow.
quantity.name: Binding Signal (fold over 6E7 parental antibody) (fold)

{"binder": "6E7 antibody affinity modulation variant V33 (antibody, V domains shown) VH: EVQLVQSGAEVKKPGESLKISCKGSGYSFTSYWIAWVRQMPGKGLEWMGIIYPGDSDTRYSPSFQGQVTISADKSISTAYLQWSSLKASDTAMYFCARQRTFYGDSSDYFDYWGQGTLVTVSS VL: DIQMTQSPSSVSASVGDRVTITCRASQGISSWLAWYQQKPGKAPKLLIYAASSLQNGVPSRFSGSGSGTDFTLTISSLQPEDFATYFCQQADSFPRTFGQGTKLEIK", "value.unit": "fold", "observed": 0.34}
{"binder": "6E7 antibody affinity modulation variant V6 (antibody, V domains shown) VH: EVQLVQSGAEVKKPGESLKISCKGSGYSFTSMWIAWVRQMPGKGLEWMGIIYPGDSDTRYSPSFQGQVTISADKSISTAYLQWSSLKASDTAMYFCARQRTFYYDSSDYFDYWGQGTLVTVSS VL: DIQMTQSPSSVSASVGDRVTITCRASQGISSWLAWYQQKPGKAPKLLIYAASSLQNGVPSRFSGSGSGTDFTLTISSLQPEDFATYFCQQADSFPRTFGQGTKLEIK", "value.unit": "fold", "observed": 0.56}
{"binder": "6E7 antibody affinity modulation variant V81 (antibody, V domains shown) VH: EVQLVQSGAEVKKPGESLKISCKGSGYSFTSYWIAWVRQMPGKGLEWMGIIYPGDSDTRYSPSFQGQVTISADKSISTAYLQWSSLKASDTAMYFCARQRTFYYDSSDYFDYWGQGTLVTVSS VL: DIQMTQSPSSVSASVGDRVTITCRASQGISSLLAWYQQKPGKAPKLLIYAASSLQNGVPSRFSGSGSGTDFTLTISSLQPEDFATYFCQQADSFPRTFGQGTKLEIK", "value.unit": "fold", "observed": 0.23}
